Can you tell me growth for the items I'm about to list?
Test system: KM12 colon
Experiment: NCI-60 one-dose screen, 48 h (100 = growth as untreated, 0 = no growth, -100 = all killed)
Conditions: 10 µM unless noted
The panel holds about 83,000 compounds, 20% with a hit somewhere; the sample as a whole holds those more often.
Form entry: value (%) — number only.

Ask: Form field: reported growth of N#CC1=C(N)Oc2c(sc3c(F)cccc23)C1c1ccc(F)cc1 (stereo unspecified)
Reply: 30.3

Ask: Form field: reported growth of COc1ccc(CC(C#N)c2cc3ccccc3[nH]2)cc1 (stereo unspecified)
Reply: 84.7

Ask: Form field: reported growth of CC1=Nc2cnc(Nc3ccc(OCCN4CCCC4)cc3)nc2Nc2ccccc21
Reply: 15.2

Ask: Form field: reported growth of CC[C@@H](C(=O)[C@@H](C)[C@@H](O)[C@H](C)[C@@H]1O[C@@H]([C@@H](CC)C(=O)NCCc2ccc(F)cc2)CC[C@@H]1C)C1O[C@]2(C=CC(=O)[C@]3(CC[C@@](C)([C@H]4CC[C@](O)(CC)[C@H](C)O4)O3)O2)[C@H](C)C[C@@H]1C (stereo partly specified)
Reply: 42.6

Ask: Form field: reported growth of C#Cc1cccc(Nc2ncnc3ccc(-c4cncc(NS(C)(=O)=O)c4)cc23)c1
Reply: 36.1

Ask: Form field: reported growth of CCCCN[C@H]1CC[C@@]2(C)[C@@H](CC[C@@]3(C)[C@H]2[C@H](O)C[C@H]2/C(=C(\CCC=C(C)C)C(=O)OC)[C@@H](OC(C)=O)C[C@@]23C)[C@@H]1C
Reply: 104

Ask: Form field: reported growth of Cc1nn(-c2ccccc2)c(Oc2ccccn2)c1-c1nc2ccccc2s1
Reply: 87.6

Ask: Form field: reported growth of Cc1ccccc1NC(=O)c1sc2nc(C)c(C(=O)/C=C/c3ccccc3)cc2c1N
Reply: 9.57

Ask: Form field: reported growth of O=C(NCc1ccccc1)Nc1ccccc1CNc1nc(Nc2ccc(OCCN3CCCC3)cc2)ncc1Cl
Reply: 94.2

Ask: Form field: reported growth of Brc1ccc2[nH]cc(-c3nonc3-c3c[nH]c4ccccc34)c2c1
Reply: 16

Ask: Form field: reported growth of CC(C)(C)n1cc(-c2ccnc(NCCCNS(=O)(=O)c3ccc(F)cc3)c2)c(-c2cccc(F)c2)n1
Reply: 40.9

###

System: COLO 205 colon
Experiment: NCI-60 one-dose screen, 48 h
Settings: 10 µM unless noted
About 83,000 compounds went through this panel and 20% of them were active in at least one assay; those are over-represented in the sample as a whole. The source made the active and inactive calls. How the source made its calls: active means growth percent below 10; inactive means the rest.
I would appreciate it if you answered using one of these outcomes: yes (1) = active, no (0) = inactive

Ask: Give the logged outcome of this assay for the following compound: COC(=O)c1cc(-c2ccc(S(C)(=O)=O)cc2)[nH]c1N/N=C/c1c(Cl)cccc1Cl
Reply: yes (1)

Ask: Give the logged outcome of this assay for the following compound: Cc1ccc(/C=N/Nc2nc(Nc3ccccc3)nc(-n3nc(C)cc3C)n2)cc1
Reply: no (0)

Ask: Give the logged outcome of this assay for the following compound: COC(=O)/C=C1/SC(=Nc2ccc(C)cc2)N(CCc2c[nH]c3ccc(O)cc23)C1=O
Reply: no (0)

Ask: Give the logged outcome of this assay for the following compound: Cc1ccc(Cl)cc1Nc1nc(C(F)(F)F)ccc1C(=O)N/N=C/c1cccnc1
Reply: no (0)

Ask: Give the logged outcome of this assay for the following compound: O=Nc1c(-c2c(O)[nH]c3ncccc23)[nH]c2ccccc12
Reply: no (0)

Ask: Give the logged outcome of this assay for the following compound: O=C1/C(=C/c2ccc(F)cc2)COc2ccc(O)cc21
Reply: no (0)

Ask: Give the logged outcome of this assay for the following compound: CC(C)NC1CCC(Nc2ccnc3cc(Cl)ccc23)CC1 (centres undefined)
Reply: no (0)

Ask: Give the logged outcome of this assay for the following compound: C1=CN2CC(c3ccccc3)=NNC2c2ccccc21 (centres undefined)
Reply: no (0)

Ask: Give the logged outcome of this assay for the following compound: CC(C)c1ccc(COCc2cc(CN3CCCC3)c(O)c3ncccc23)cc1
Reply: no (0)

Ask: Give the logged outcome of this assay for the following compound: N#C/C(=C\c1ccc(Br)cc1)n1nnc2ccc(F)cc21
Reply: yes (1)

Ask: Give the logged outcome of this assay for the following compound: c1cnc2[nH]cc(-c3csc(-c4cn(CCCN5CCOCC5)c5ccccc45)n3)c2c1
Reply: no (0)

Ask: Give the logged outcome of this assay for the following compound: CCCCCCCCCCCCCCCCCCOc1ccccc1CC(=O)NCC[N+]1(C)CCCC1
Reply: yes (1)

Ask: Give the logged outcome of this assay for the following compound: CC(=O)OC[C@]12CCC(C)(C)C[C@H]1[C@@]1(O)[C@H](O)C[C@@H]3[C@@]4(C)CCCNC(C)(C)[C@@H]4CC[C@@]3(C)[C@]1(C)CC2
Reply: no (0)

Ask: Give the logged outcome of this assay for the following compound: CCOC(=O)c1cn2ncnc(Oc3ccc(NC(=O)NC4CCCCC4)c(Cl)c3)c2c1C
Reply: no (0)
